Assay: recombinant UMI read abundance after kanamycin selection (control-corrected) (log10(CPM+1)); higher = more efficient recombination; extreme values may be limits of the assay; sequences stand for … in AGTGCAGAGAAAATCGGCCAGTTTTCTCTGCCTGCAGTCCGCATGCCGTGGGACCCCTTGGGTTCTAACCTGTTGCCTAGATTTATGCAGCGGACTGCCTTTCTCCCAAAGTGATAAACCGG…AGGTTGGTTTCACT; site = the 11-nt donor
The entries below are paired with their reported recombinant UMI read abundance (log10).
Returns: the value as a bare number; no unit string appended.

{"Residue Codes": "CGAACATCATGGACCGGTTTTCCCGGTAATCCGTATTTGAT (site CGATCATCTAG)", "Result": 0}
{"Residue Codes": "ACTCGAACATGGACCGGTTTTCCCGGTAATCCGTATTTGAG (site ACTGGAACTCT)", "Result": 0.00958}
{"Residue Codes": "CTGGACACATGGACCGGTTTTCCCGGTAATCCGTATTTGAG (site CTGGACACTCT)", "Result": 1.47}
{"Residue Codes": "CGATTTCCATGGACCGGTTTTCCCGGTAATCCGTATTTGTT (site CGATTTCCTAA)", "Result": 0.757}

IN: // returns reported recombinant UMI read abundance (log10) for input CGGACATCATGGACCGGTTTTCCCGGTAATCCGTATTTGAT (site CGGACATCTAG)
OUT: 0

###

Assay: recombinant UMI read abundance after kanamycin selection (control-corrected) (log10(CPM+1)); higher = more efficient recombination; extreme values may be limits of the assay; sequences stand for … in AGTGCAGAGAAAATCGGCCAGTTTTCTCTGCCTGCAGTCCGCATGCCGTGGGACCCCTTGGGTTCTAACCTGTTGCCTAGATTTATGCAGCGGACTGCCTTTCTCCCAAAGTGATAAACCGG…AGGTTGGTTTCACT; site = the 11-nt donor
The entries below are paired with their reported recombinant UMI read abundance (log10).
Returns: the value as a bare number; no unit string appended.

IN: // returns reported recombinant UMI read abundance (log10) for input GGGATTGCATGGACCGGTTTTCCCGGTAATCCGTATTTGAC (site GGGATTGCTGT)
OUT: 2.05

IN: // returns reported recombinant UMI read abundance (log10) for input GTTGTTACATGGACCGGTTTTCCCGGTAATCCGTATTTGGT (site GTTGTTTCTAC)
OUT: 0

IN: // returns reported recombinant UMI read abundance (log10) for input CGCCGTACATGGACCGGTTTTCCCGGTAATCCGTATTTGCG (site CGCCGTACTAG)
OUT: 0

IN: // returns reported recombinant UMI read abundance (log10) for input CTCGAGTCATGGACCGGTTTTCCCGGTAATCCGTATTTGTG (site CTCGAGTCTCA)
OUT: 1.87

###

Assay: recombinant UMI read abundance after kanamycin selection (control-corrected) (log10(CPM+1)); higher = more efficient recombination; extreme values may be limits of the assay; sequences stand for … in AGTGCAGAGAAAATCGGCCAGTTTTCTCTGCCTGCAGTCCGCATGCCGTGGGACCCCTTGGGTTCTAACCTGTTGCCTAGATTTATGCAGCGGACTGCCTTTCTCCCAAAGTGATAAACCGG…AGGTTGGTTTCACT; site = the 11-nt donor
The entries below are paired with their reported recombinant UMI read abundance (log10).
Returns: the value as a bare number; no unit string appended.

Consider the worked cases shown below.
{"Residue Codes": "AGAACTACATGGACCGGTTTTCCCGGTAATCCGTATTTGAC (site AGGACTACTGT)", "recombinant UMI read abundance (log10)": 0.849}
{"Residue Codes": "GCTCGTCCATGGACCGGTTTTCCCGGTAATCCGTATTTGGG (site GCTCGTCCTCC)", "recombinant UMI read abundance (log10)": 0.0164}
{"Residue Codes": "GGTACGTCATGGACCGGTTTTCCCGGTAATCCGTATTTGTT (site GGTAGGTCTAA)", "recombinant UMI read abundance (log10)": 0.00929}

IN: // returns reported recombinant UMI read abundance (log10) for input ACTCGAACATGGACCGGTTTTCCCGGTAATCCGTATTTGAG (site ACTTGAACTCT)
OUT: 0.00429

IN: // returns reported recombinant UMI read abundance (log10) for input CATGTAACATGGACCGGTTTTCCCGGTAATCCGTATTTGGG (site CATGTAACTCC)
OUT: 0.209

IN: // returns reported recombinant UMI read abundance (log10) for input TAGCTAGCATGGACCGGTTTTCCCGGTAATCCGTATTTGAA (site TAGCTAGCTTA)
OUT: 0.00377

IN: // returns reported recombinant UMI read abundance (log10) for input CGGCATCCATGGACCGGTTTTCCCGGTAATCCGTATTTGTT (site CGGCATCCTAA)
OUT: 0.467

IN: // returns reported recombinant UMI read abundance (log10) for input AGAACGGCATGGACCGGTTTTCCCGGTAATCCGTATTTGCT (site AGAATGGCTAG)
OUT: 0

IN: // returns reported recombinant UMI read abundance (log10) for input CAACTAGCATGGACCGGTTTTCCCGGTAATCCGTATTTGCA (site CAACTAGCTTG)
OUT: 1.13

IN: // returns reported recombinant UMI read abundance (log10) for input ATCGATACATGGACCGGTTTTCCCGGTAATCCGTATTTGAC (site ATCGATACTGT)
OUT: 2.32

IN: // returns reported recombinant UMI read abundance (log10) for input GTTCGACCATGGACCGGTTTTCCCGGTAATCCGTATTTGCA (site GTTCGAACTTG)
OUT: 0

IN: // returns reported recombinant UMI read abundance (log10) for input CCTTTCTCATGGACCGGTTTTCCCGGTAATCCGTATTTGGG (site CCCTTCTCTCC)
OUT: 0.0264

IN: // returns reported recombinant UMI read abundance (log10) for input CCGTCAGCATGGACCGGTTTTCCCGGTAATCCGTATTTGTG (site CCGTGAGCTCA)
OUT: 0.00599

IN: // returns reported recombinant UMI read abundance (log10) for input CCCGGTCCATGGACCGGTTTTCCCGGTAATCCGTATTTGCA (site CCCGATCCTTG)
OUT: 0

IN: // returns reported recombinant UMI read abundance (log10) for input CGGACATCATGGACCGGTTTTCCCGGTAATCCGTATTTGCT (site CGGACCTCTAG)
OUT: 0.303

IN: // returns reported recombinant UMI read abundance (log10) for input CTCTACACATGGACCGGTTTTCCCGGTAATCCGTATTTGCT (site ATCTACACTAG)
OUT: 0.294

IN: // returns reported recombinant UMI read abundance (log10) for input CCCTTCTCATGGACCGGTTTTCCCGGTAATCCGTATTTGGA (site CCCTTCTCTAC)
OUT: 0

IN: // returns reported recombinant UMI read abundance (log10) for input TATTGGGCATGGACCGGTTTTCCCGGTAATCCGTATTTGTG (site TATTTGGCTCA)
OUT: 0.0234

###

The entries below are paired with their reported recombinant barcode read abundance (log10).
Experiment: recombinant barcode read abundance after kanamycin selection (control-corrected) (log10(CPM+1)); higher = more efficient recombination; sequences stand for … in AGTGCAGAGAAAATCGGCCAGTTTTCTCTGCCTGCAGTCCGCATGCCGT…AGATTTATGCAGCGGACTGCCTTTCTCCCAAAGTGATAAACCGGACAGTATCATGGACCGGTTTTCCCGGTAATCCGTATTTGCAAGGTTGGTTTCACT; site = the 11-nt target
Returns: the value as a bare number; no unit string appended.

Consider the worked cases shown below.
{"Residue Codes": "ATTGGTCCTTGGGTTCTAACCTGTTGCAT (site ATTGGTCCTAT)", "Result": 1.92}
{"Residue Codes": "GGTCCGTCTTGGGTTCTAACCTGTTGCAT (site GGTCCGTCTAT)", "Result": 1.16}
{"Residue Codes": "CTACAGGCTTGGGTTCTAACCTGTTGCAC (site GAGTCTTCTTG)", "Result": 0.165}
{"Residue Codes": "AAGCACTCTTGGGTTCTAACCTGTTGCCT (site AAGCACTCTAG)", "Result": 2.58}
{"Residue Codes": "GGAGAGGCTTGGGTTCTAACCTGTTGCCT (site GGAGAAGCTAG)", "Result": 0.893}

IN: // returns reported recombinant barcode read abundance (log10) for input TTGCGAGCTTGGGTTCTAACCTGTTGCAT (site TTGCGTGCTAA)
OUT: 0.0906

IN: // returns reported recombinant barcode read abundance (log10) for input GCTGAGTCTTGGGTTCTAACCTGTTGCTA (site AGGCCCACTAT)
OUT: 0.0625

IN: // returns reported recombinant barcode read abundance (log10) for input ATAAACCCTTGGGTTCTAACCTGTTGCAT (site ATAAACCCTAT)
OUT: 2.4

IN: // returns reported recombinant barcode read abundance (log10) for input CGCGCTCCTTGGGTTCTAACCTGTTGCCT (site CGCGATCCTAG)
OUT: 0.0445

IN: // returns reported recombinant barcode read abundance (log10) for input AGGCGTACTTGGGTTCTAACCTGTTGCCT (site AGTCGTACTAG)
OUT: 0.0768
